Record form. Attribute: z-score. Fill in for each entry.
assay procedure: calcein-AM signal in unstimulated myeloma cells – cell-based, calcein-AM fluorescence, 48 h, PK04 Diversity Set, profiling panel (AID 1166);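 note: cells grown under basal conditions without added stimulus; test concentration not given here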
particulars: RPMI8226 myeloma viability, higher = more signal
A bare number is all that is needed in reply.

Lookup: For CCCC=C(CCC)[C@@H](NS(=O)(=O)CC12CCC(CC1=O)C2(C)C)c1ccc(C(=O)OC)cc1 (stereo partly drawn) , what is its reported z-score?
Found: -1.06

Lookup: And for [N-]=[N+]=NCc1ccccc1[C@@H]1OC(c2ccc(OCCCO)cc2)=N[C@]1(CCS(=O)(=O)c1ccccc1)C(=O)O ?
Found: -0.206

Lookup: And for CC(C)NC(=O)[C@@]1(C)c2ccccc2C(=O)N(Cc2ccc(OC(F)(F)F)cc2)[C@H]1c1ccc(CO)cc1 ?
Found: -0.676

Lookup: And for CCCC=C(CCC)[C@@H](NC(=O)C(C)(C)C)c1ccc(C(=O)OC)cc1 ?
Found: -2.08

Lookup: And for CC[C@@H]1O[Si](C(C)C)(C(C)C)c2c1cc(-c1cc(C)c(OC)c(C)c1)nc2-c1ccc(Oc2ccccc2)cc1 ?
Found: -0.388

Lookup: And for CCC1=C2CN(Cc3ccccc3)[C@@H](C(=O)Cc3ccccc3)C2C=CCC1 (stereo partly drawn) ?
Found: -0.96

Lookup: And for NC(=O)NCC#Cc1ccc2c(c1)[C@]1(C(=O)N2)[C@H](C(=O)N2CCN(c3ncccn3)CC2)[C@H]2C(=O)O[C@H](c3ccccc3)[C@H](c3ccccc3)N2[C@@H]1c1ccc(O)cc1 ?
Found: 0.18

Lookup: And for COc1cc2c(cc1O)C(C1CC1)N(C)CC2 (stereo not drawn) ?
Found: -0.393

###

assay procedure: small molecules captured by biotinylated probe aFGF2 – biochemical, small-molecule microarray, fluorescence 635/667, stem cell growth factor project, primary screen (AID 1067);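 note: measures binding of biotinylated aFGF2 protein to printed compounds on slides; z-score merges feature fluorescence and signal-to-noise across triplicate slides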
particulars: higher = more signal
recorded metric: composite z-score
A bare number is all that is needed in reply.

Lookup: For COc1cccc(C)c1NC(=O)O[C@H]1[C@H](OC(=O)Nc2ccc3c(c2)OCO3)[C@@H](OC(=O)Nc2ccc3c(c2)OCO3)[C@@H](OC)O[C@@H]1CO , what is its reported composite z-score?
Found: 0.121

Lookup: And for C=C[C@@H](CO)N(Cc1ccc(OC)cc1)S(=O)(=O)c1ccc(Br)cc1 ?
Found: -0.13

Lookup: And for COCCOC(=O)N1C(=O)[C@@]2(c3cc(C#CC4(O)CCCCCC4)ccc31)[C@H](C(=O)Nc1nc3ccccc3s1)[C@H]1C(=O)O[C@H](c3ccccc3)[C@H](c3ccccc3)N1[C@@H]2c1ccc(O)cc1 ?
Found: -0.0202

Lookup: And for CCC#CCN(Cc1ccccc1Br)[C@H](/C=C/C1CC1)[C@@H](O)Cc1ccccc1 ?
Found: -0.17

Lookup: And for CCCCCCc1nc(Cc2cc(OC)c(OC)c(OC)c2)cc2c1[Si](C(C)C)(C(C)C)OC2 ?
Found: -0.0909

Lookup: And for NCCCCCNC(=O)[C@@H]1C[C@@H]2C(=O)N[C@@H](CCCCN)C(=O)N2[C@@H]1c1ccc(O)cc1 ?
Found: -0.0213

Lookup: And for NC(=O)NCC#Cc1ccc2c(c1)[C@]1(C(=O)N2)[C@H](c2ccccc2OCCO)N2[C@H](c3ccccc3)[C@H](c3ccccc3)OC(=O)[C@H]2[C@@H]1C(=O)NC[C@H](O)c1ccccc1 ?
Found: -0.085

###

system name: Torsin-1A (Homo sapiens)
assay procedure: TOR1A wild-type binding on microarray – cell lysate, small-molecule microarray, lysate, 635/667 nm, primary screen (AID 1149)
particulars: COS7 hTOR1A-WT lysate, 635 nm fluorescence, higher = more signal
recorded metric: composite z-score
A bare number is all that is needed in reply.

Lookup: For COc1ccc([Si](C)(C)[C@H]2[C@H](CC(=O)N3Cc4ccccc4C[C@H]3CO)O[C@@]3(C(=O)N(Cc4ccc(N5CCOC5=O)cc4)c4ccccc43)[C@@H]2C)cc1 , what is its reported composite z-score?
Found: 0.787

Lookup: And for C=CCNC(=O)[C@@H]1[C@H]2C(=O)O[C@H](c3ccccc3)[C@H](c3ccccc3)N2[C@H](c2ccccc2OCCO)[C@@]12C(=O)Nc1ccc(C#CCCO)cc12 ?
Found: 0.188

Lookup: And for Cc1ccccc1C(O)C1C=CC2C(=O)NC(=O)C2N1Nc1ccccn1 (configuration not stated) ?
Found: 0.248

Lookup: And for CC(C)N1C(=O)C[C@@](C(=O)O)(c2ccc([N+](=O)[O-])cc2)[C@H]1c1ccc(CO)cc1 ?
Found: -0.254

Lookup: And for [N-]=[N+]=Nc1ccccc1C[C@]1(C(=O)O)COC(c2ccc(OCCCO)cc2)=N1 ?
Found: -2.54

Lookup: And for CN(C)C(=O)[C@]1(CCC(=O)OC(C)(C)C)N=C(c2ccc(OCCCO)cc2)O[C@@H]1c1ccccc1CN=[N+]=[N-] ?
Found: 1.53

Lookup: And for COC(=O)[C@@]1(Cc2ccc(OC)cc2)[C@H]2c3cc(C(=O)N4CCCC4)n(CCc4c[nH]c5ccc(O)cc45)c3C[C@H]2CN1C(=O)c1ccccc1 ?
Found: 0.132

###

system name: Calmodulin-1 (Homo sapiens)
assay procedure: small molecules binding Ca-loaded calmodulin-1 – biochemical, small-molecule microarray, Cy5-labelled CALM1, plus calcium, artefact control for SMM control-protein annotation, profiling panel (AID 1112);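 note: score merges spot fluorescence with signal to noise from triplicate slides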
particulars: Cy5-CALM1 binding fluorescence, higher = more signal
The threshold is inclusive: composite z-score of exactly 0.08 counts as TRUE; values below receive FALSE.

Lookup: For this molecule, is measured composite z-score 0.08 or higher? CCCC#C[Si](O[C@H](CC)c1cn([C@H](C)c2ccccc2)nn1)(C(C)C)C(C)C
Found: FALSE

Lookup: And for C#CCN([C@@H](Cc1ccccc1)C(=O)OC)[C@@H](/C=C/C1CC1)[C@H](O)Cc1ccccc1 ?
Found: FALSE

Lookup: And for C[N+](C)(C)CCCCCCNC(=O)[C@@H]1C[C@@H]2C(=O)N3CCC[C@H]3C(=O)N2[C@@H]1c1ccc(O)cc1 ?
Found: FALSE

Lookup: And for CN1C2C=C(CCCO)C(C3C(=O)N(C(N)=O)C(=O)C32)C1C1CC1 (stereo not drawn) ?
Found: FALSE

Lookup: And for COc1ccc([Si](C)(C)[C@H]2[C@H](CC(=O)N3CCC[C@H]3CO)O[C@@]3(C(=O)N(Cc4ccc(N5CCOC5=O)cc4)c4ccccc43)[C@@H]2C)cc1 ?
Found: TRUE

Lookup: And for CC(=O)N1CC2(CC2)CC1c1ccccc1 (stereo not drawn) ?
Found: TRUE

Lookup: And for CC(C)[Si](C#C[Si](C(C)C)(C(C)C)C(C)C)(O[C@H](c1ccccc1)c1cn(Cc2ccccc2)nn1)C(C)C ?
Found: FALSE

Lookup: And for CCCCN1CC=CC23O[C@@H]4/C=C\CCC(C)OC(=O)C4[C@H]2C(=O)N(CCCO)[C@@H]3C1=O (stereo partly drawn) ?
Found: TRUE

Lookup: And for C=CC[C@]1(C(=O)N2CCCCC2)N=C(c2ccc(OCCCO)cc2)O[C@H]1c1ccccc1CN=[N+]=[N-] ?
Found: TRUE

Lookup: And for O=C1OCCC=C[C@H]2OC34C=CCN(c5ccc6ccccc6c5)C(=O)[C@H]3N(CCCO)C(=O)[C@@H]4C12 (stereo partly drawn) ?
Found: FALSE

Lookup: And for C=CCOC(=O)[C@@H]1[C@H]2C(=O)O[C@H](c3ccccc3)[C@H](c3ccccc3)N2[C@H](c2ccc(OCCOC(=O)[C@@H]3C[C@@H]4C(=O)N[C@@H](CCCC[N+](C)(C)C)C(=O)N4[C@@H]3c3ccc(O)cc3)cc2)[C@@]12C(=O)Nc1ccc(I)cc12 ?
Found: FALSE

Lookup: And for CN(C)C(=O)[C@]1(CCC(=O)OC(C)(C)C)N=C(c2ccc(OCCCO)cc2)O[C@@H]1c1ccccc1CN=[N+]=[N-] ?
Found: TRUE

Lookup: And for CS(=O)(=O)CCOC(=O)C1=CC(c2ccc(CO)cc2)=CC(C2CC2)N(Cc2sc3ccccc3c2Cl)C=C1C(=O)OCCS(C)(=O)=O (stereo not drawn) ?
Found: FALSE

Lookup: And for COC(=O)[C@@]1(Cc2ccccc2)[C@H]2c3cc(C(=O)N4CCCC4)n(CCc4ccccn4)c3C[C@H]2CN1C(=O)c1ccccc1 ?
Found: TRUE

Lookup: And for O=C1O[C@@H](c2ccccc2)[C@@H](c2ccccc2)N2[C@@H](c3ccc(O)cc3)[C@]3(C(=O)Nc4ccc(C#CCCO)cc43)[C@@H](C(=O)N3CCN(c4ncccn4)CC3)[C@H]12 ?
Found: FALSE

Lookup: And for COCCCNC(=O)[C@@]1(Sc2ccc(C)cc2)CC(=O)N(C2Cc3ccccc3C2)[C@@H]1c1ccc(CO)cc1 ?
Found: FALSE

Lookup: And for COc1ccc(CCNC(=O)[C@@]2(c3ccc([N+](=O)[O-])cc3)CC(=O)N(C3CCCCC3)[C@@H]2c2ccc(CO)cc2)cc1 ?
Found: TRUE

Lookup: And for CC(CO)N1C(=O)[C@@H]2[C@H]3C(=O)OCC=C[C@H]3OC23C=CCN(Cn2nnc4ccccc42)C(=O)[C@@H]13 (stereo partly drawn) ?
Found: FALSE

Lookup: And for CCOC(=O)C1=CC[C@@H](c2ccccc2)N(S(=O)(=O)c2ccc(C)cc2)[C@H]1c1ccccc1 ?
Found: TRUE

Lookup: And for O=C1O[C@H](c2ccccc2)[C@H](c2ccccc2)N2[C@H]1[C@@H](C(=O)O)[C@]1(C(=O)Nc3ccc(C#CCCO)cc31)[C@H]2c1ccccc1OCCO ?
Found: FALSE

Lookup: And for COc1cc2c(cc1O)C(C1CC1)N(Cc1cccc(OC(F)(F)F)c1)CC2 (stereo not drawn) ?
Found: FALSE

Lookup: And for CCOC(=O)C[C@H]1[C@H](OC(=O)c2ccc(C(=O)c3ccccc3)cc2)[C@@H](NC(=O)c2ccc(-c3ccccc3)cc2)c2cc(OCCCO)ccc2N1C(=O)Cc1ccc(OC)cc1 ?
Found: FALSE

Lookup: And for COC(=O)[C@@H]1N=C(c2ccc(OCCCO)cc2)O[C@@H]1c1ccccc1 ?
Found: FALSE

Lookup: And for CC(C)C(CO)N1C(=O)[C@@H]2[C@H]3C(=O)OCC=C[C@H]3OC23C=CCN(c2ccc(Cl)cc2)C(=O)[C@@H]13 (stereo partly drawn) ?
Found: FALSE

Lookup: And for NCCCCCCNC(=O)[C@@H]1C[C@@H]2C(=O)N[C@@H](CCCCN)C(=O)N2[C@@H]1c1ccc(O)cc1 ?
Found: FALSE

Lookup: And for CCCCCN1CC=CC23O[C@@H]4C=CCCOC(=O)C4[C@H]2C(=O)N(CCCCCCO)[C@@H]3C1=O (stereo partly drawn) ?
Found: FALSE

Lookup: And for NC(=O)NCC#Cc1ccc2c(c1)[C@]1(C(=O)N2)[C@H](c2ccccc2OCCO)N2[C@H](c3ccccc3)[C@H](c3ccccc3)OC(=O)[C@H]2[C@@H]1C(=O)NC[C@H](O)c1ccccc1 ?
Found: TRUE
